The reported numbers originate from the supplement of paper PMC6555819.

- Test system: LXRa homodimer (NR concentration 270 nM)
- methodNotes: PBM binding z-score (relative to random genomic background probes); higher = stronger binding; sequences stand for … in GC…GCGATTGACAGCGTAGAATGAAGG

sequenceText: ACTATTATTTGACTTAGGGCAACCGATACGACGC
PBM binding z-score: 1.54
--
sequenceText: CCGACTGGGGCAGAAAGGTTATCATACCATCCGG
PBM binding z-score: 0.0667
--
sequenceText: GATACAGGGTCAGGGCCAGAGTACGCGTATTGAT
PBM binding z-score: -0.233
--
sequenceText: CGTCCAAGGTCAGAGAGGTGAGTGAATGCCGAGT
PBM binding z-score: 0.18
--
sequenceText: GATACAGGGTCTAGGCCAGAGTACGCGTATTGAT
PBM binding z-score: -0.516
--
sequenceText: GCTGCTAGGTCAGGTTGGTCAGCTACCGGGTACG
PBM binding z-score: -0.544
--
sequenceText: TCTTGTAGATCAATAGAGGTTAATAAAGTGCGCT
PBM binding z-score: 0.943
--
sequenceText: CATACAGGGTCAGCTAAGCCAGAGTAGGGACGGC
PBM binding z-score: 0.0357
--
sequenceText: CCTAGCAGCCCAATCTGGGTCACTCAAGGCTTGA
PBM binding z-score: -0.399
--
sequenceText: CCTACTGGGCCAAGGTCATTAATCAGTCAAAGCA
PBM binding z-score: 1.18
--
sequenceText: ATCTTTAGGTAACCAAGTTCAGTGAATGCCGAAC
PBM binding z-score: 0.896
--
sequenceText: TCTTGTAGATCAATAGAGGTTTAGAAAGTGCGCT
PBM binding z-score: -0.272
--
sequenceText: TCGAGTAAGTTAGGGGCATTCAGAATGGCGTCGA
PBM binding z-score: -0.298
--
sequenceText: TATTGTAGATCAAGCAGGTTAAGAAAGCCTGAGT
PBM binding z-score: -0.0497
--
sequenceText: CTAACAAGGTGAACAAGGTCGTTGATTACTATTC
PBM binding z-score: 0.00841
--
sequenceText: CCGAATGGGGCATAAGGTTACCATAAGCCAGCCC
PBM binding z-score: -0.224

* * *

- Tested on: PPARg:RXRa 270nM:90nM, anti-RXR (NR concentration 270 nM, RXRa partner concentration 90 nM)
- methodNotes: PBM binding z-score (relative to random genomic background probes); higher = stronger binding; sequences stand for … in GC…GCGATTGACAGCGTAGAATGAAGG
attributeMeasured: PBM binding z-score

sequenceText: CTTCCAAGGTCAAAGGTCAGTGAAGAGATGACGG
attributeMeasured: PBM binding z-score
numericReadout: 9.09
--
sequenceText: GCTGCTAGGTCAGGTTGCTCAGCTAACGGGTACG
attributeMeasured: PBM binding z-score
numericReadout: 1.06
--
sequenceText: CCGAGTAGGTTATGGGGCATTTAGGCAACGGTGA
attributeMeasured: PBM binding z-score
numericReadout: 4.47
--
sequenceText: GCATATAGGTAATACAAGGTGAAAGTACGATTGT
attributeMeasured: PBM binding z-score
numericReadout: 1.86
--
sequenceText: CGTCAAAGTTCAACTAAGGTGACGTAAAGCACGC
attributeMeasured: PBM binding z-score
numericReadout: 5.86
--
sequenceText: AGAACGCGGGCACGCTGAGTTGATAGCAGAGTAG
attributeMeasured: PBM binding z-score
numericReadout: -0.844
--
sequenceText: TCGATTAGTTGATTAGGGCAACCGAAACAGCGGA
attributeMeasured: PBM binding z-score
numericReadout: 1.25
--
sequenceText: CGTCCAAGGTCATAGGAAGTCAGTGAAGACAGAT
attributeMeasured: PBM binding z-score
numericReadout: 4.99
--
sequenceText: GATACAGCGTCAGCTAGAGGCCAGAGTATGGAAA
attributeMeasured: PBM binding z-score
numericReadout: -0.842
--
sequenceText: GCATATAGGTACTACAAGGTGAAAGTCCGATTGT
attributeMeasured: PBM binding z-score
numericReadout: 0.784
--
sequenceText: CCTAGCAGGCCAATCTGGGTCACTCAGGGCTTGA
attributeMeasured: PBM binding z-score
numericReadout: 2.15
--
sequenceText: CCTAACGGGTCACGAGGTTATAGCACGACGAGCG
attributeMeasured: PBM binding z-score
numericReadout: 5.88
--
sequenceText: TCATATAGGTTAACAGGTGAAAGTCCGTAAGTTA
attributeMeasured: PBM binding z-score
numericReadout: 5.12
--
sequenceText: ATATGTTGGTTACATCCGGGTCATTCAGGCTATG
attributeMeasured: PBM binding z-score
numericReadout: 1.17
--
sequenceText: CATACAGAGTCAGCTAGGCCAGAGTAGGGACGGC
attributeMeasured: PBM binding z-score
numericReadout: -0.324
--
sequenceText: TTACCAAGGTGAGCTGAGGTCGGTGATCCAACTC
attributeMeasured: PBM binding z-score
numericReadout: 0.517
